Molecular target: GRID2IP_2, A4D2P6
Sequence (A4D2P6 272-370): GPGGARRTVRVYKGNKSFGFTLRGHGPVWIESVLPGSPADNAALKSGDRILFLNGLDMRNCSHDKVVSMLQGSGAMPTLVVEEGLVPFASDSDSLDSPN
Test: holdup assay
Parameters: key: below the threshold = too weak to quantify, mostly under pKd 3.1 to 4
Conditions: plain residues with an end cap or a label only (N-terminal biotin on a linker: ado-ado)
Rule: pKd under 4 gives criterion not met, otherwise criterion met.

Use the examples below as a reference point.
- RDYTQSSSSL [GRM5, P41594]: criterion met
- VISSDDLTEL [CAPN6, Q9Y6Q1]: criterion met
- WAKEKQHTRL [SLC17A1, Q14916]: criterion met
- TNSKQGETTV [FZD1, Q9UP38]: criterion not met

Does the binder PAALPESTHM [SLC9A3, P48764] have recorded pKd that is 4 or more?
criterion met

Same for TFSRRPKTRV [CD226, Q15762]
criterion met

Request: FHSIKQSTAV [CRHR1, P34998]
criterion met

One more binder: EPAKETTTNV [SLC2A3, P11169]
criterion not met

Values compiled from paper PMC9482650.
